Hello, the source for this data is patent US20210032294A1, in case you need it.

system: bacterial inoculum; test: Thermal stability: in vitro lytic assay after 30 min heating; assay type: cell-based; settings: 30 minutes at 50° C.
property_measured: % of CF-301 wild-type, 50° C. (%)

INSERT INTO assay_data (molecule, meas_value) VALUES
  ('pp55: Modified PlySs2 lysin, SEQ ID NO: 3: L92W, V104S, V128T, Y137S; extra C-terminal lysine (+246K) (protein) MTTVNEALNNVRAQVGSGVSVGNGECYALASWYERMISPDATVGLGAGVGWVSGAIGDTISAKNIGSSYNWQANGWTVSTSGPFKAGQIVTWGATPGNPYGHVSIVEAVDGDRLTILEQNYGGKRYPTRNYYSAASSRQQVVHYITPPGTVAQSAPNLAGSRSYRETGTMTVTVDALNVRRAPNTSGEIVAVYKRGESFDYDTVIIDVNGYVWVSYIGGSGKRNYVATGATKDGKRFGNAWGTFK', 11.2),
  ('pp296: Modified PlySs2 lysin, SEQ ID NO: 6: L92W, V104S, V128T, Y137S, Y164K, N184D, S198Q (protein) MTTVNEALNNVRAQVGSGVSVGNGECYALASWYERMISPDATVGLGAGVGWVSGAIGDTISAKNIGSSYNWQANGWTVSTSGPFKAGQIVTWGATPGNPYGHVSIVEAVDGDRLTILEQNYGGKRYPTRNYYSAASSRQQVVHYITPPGTVAQSAPNLAGSRSKRETGTMTVTVDALNVRRAPDTSGEIVAVYKRGEQFDYDTAIIDVNGYAWVSYIGGSGKRNYVATGATKDGKRFGNAWGTFK', 0.0),
  ('pp65: Modified PlySs2 lysin, SEQ ID NO: 5: L92W, V104S, V128T, Y137S, S198Q, V204A, V212A; +246K (protein) MTTVNEALNNVRAQVGSGVSVGNGECYALASWYERMISPDATVGLGAGVGWVSGAIGDTISAKNIGSSYNWQANGWTVSTSGPFKAGQIVTWGATPGNPYGHVSIVEAVDGDRLTILEQNYGGKRYPTRNYYSAASSRQQVVHYITPPGTVAQSAPNLAGSRSYRETGTMTVTVDALNVRRAPNTSGEIVAVYKRGEQFDYDTAIIDVNGYAWVSYIGGSGKRNYVATGATKDGKRFGNAWGTFK', 0.0),
  ('pp61: Modified PlySs2 lysin, SEQ ID NO: 4: L92W, V104S, V128T, Y137S, S198H, I206E; +246K (protein) MTTVNEALNNVRAQVGSGVSVGNGECYALASWYERMISPDATVGLGAGVGWVSGAIGDTISAKNIGSSYNWQANGWTVSTSGPFKAGQIVTWGATPGNPYGHVSIVEAVDGDRLTILEQNYGGKRYPTRNYYSAASSRQQVVHYITPPGTVAQSAPNLAGSRSYRETGTMTVTVDALNVRRAPNTSGEIVAVYKRGEHFDYDTVIEDVNGYVWVSYIGGSGKRNYVATGATKDGKRFGNAWGTFK', 0.0);
